# Target Under Test: T1, free FIXa (activated Factor IX) (human, UniProt P00740 47-191; P00740 227-461)
# T1 construct: BLI antigen bought from Haematologic Technologies (HCIXA-0050); also called factor IXa
# Protocol Text: BLI; class meaning: paragraph 914
Property Measured: binding result

BIIB-9-1272 (antibody, V domains shown, IgG) VH: QVQLVQSGAEVKKPGASVKVSCKASGYTFTSYYMHWVRQAPGQGLEWMGIINPSGGSTSYAQKFQGRVTMTRDTSTSTVYMELSSLRSEDTAVYYCARDTGGYAFDIWGQGTLVTVSS VL: DIQMTQSPSSVSASVGDRVTITCRASQGISSWLAWYQQKPGKAPKLLIYAASSLQSGVPSRFSGSGSGTDFTLTISSLQPEDFATYYCQQASSFPFTFGGGTKVEIK	binds
BIIB-9-1268 (antibody, V domains shown, IgG) VH: QVQLVQSGAEVKKPGASVKVSCKASGYTFTSYYMHWVRQAPGQGLEWMGIINPSGGSTSYAQKFQGRVTMTRDTSTSTVYMELSSLRSEDTAVYYCARDPPSWYVFDIWGQGTMVTVSS VL: EIVMTQSPATLSLSPGERATLSCRASQSVSSYLAWYQQKPGQAPRLLIYDASNRATGIPARFSGSGSGTDFTLTISSLEPEDFAVYYCQQATVWPFTFGGGTKVEIK	binds
BIIB-9-629 (antibody, V domains shown, IgG) VH: QVQLVQSGAEVKKPGASVKVSCKASGYTFTSYYMHWVRQAPGQGLEWMGVINPSGGSTSYAQKFQGRVTMTRDTSTSTVYMELSSLRSEDTAVYYCARDPSQDYATGTGWFDPWGQGTLVTVSS VL: DIQLTQSPSSLSASVGDRVTITCQASQDISNYLNWYQQKPGKAPKLLIYDASNLETGVPSRFSGSGSGTDFTFTISSLQPEDIATYYCQQLDSLPPTFGGGTKVEIK	binds
